- TESTED_SYSTEM: human 5-HT4(a) (Homo sapiens, UniProt Q13639)
- Sequence (Q13639 1-387 isoform Q13639-2): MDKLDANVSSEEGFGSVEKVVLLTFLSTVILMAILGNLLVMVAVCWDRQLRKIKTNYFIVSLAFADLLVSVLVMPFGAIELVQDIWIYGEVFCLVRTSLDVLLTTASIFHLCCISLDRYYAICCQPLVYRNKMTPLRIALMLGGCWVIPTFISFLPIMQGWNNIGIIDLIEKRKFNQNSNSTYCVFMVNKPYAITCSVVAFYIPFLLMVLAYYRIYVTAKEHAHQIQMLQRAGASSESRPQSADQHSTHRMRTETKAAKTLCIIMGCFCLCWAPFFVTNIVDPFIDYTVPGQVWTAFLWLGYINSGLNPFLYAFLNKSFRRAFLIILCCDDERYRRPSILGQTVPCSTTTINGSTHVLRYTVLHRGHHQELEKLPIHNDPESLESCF
- RUN_DESCRIPTION: Evaluation of agonistic activity in CHO-K1 cells expressing human 5-HT4(a) (GeneBlAzer HTR4-CRE-bla, beta-lactamase reporter)
- MEASUREMENT_CONDITIONS: 5 hours incubation, 8 concentrations
Counter-ions that a name gives are not always drawn.
MEASUREMENT_LABEL: EC50 (nM)

Here is how some molecules turned out for EC50.
{"MOLECULE": "CCCN[C@H]1CCN(c2nc(Nc3cc(N)cc(C#N)c3)nc3c2CCC3)C1 [Example 184, dihydrochloride]", "MEASUREMENT_LABEL": "EC50", "NUMERIC_VALUE": 0.01}
{"MOLECULE": "CN[C@@H]1CCCN(c2nc(Nc3cc(N)cc(C#N)c3)nc3c2CCC3)C1 [Example 204, dihydrochloride]", "MEASUREMENT_LABEL": "EC50", "NUMERIC_VALUE": 0.01}

I = CCCN[C@H]1CCN(c2nc(Nc3cc(N)cc(C#N)c3)nc3cccnc23)C1 [Example 159, dihydrochloride]
II = CC(=O)N[C@H]1CCN(c2nc(Nc3cc(N)cc(C#N)c3)nc3cc(Cl)ccc23)C1 [Example 81, hydrochloride]
For the pair I and II , which entry has the numerically smaller recorded EC50? When you have decided, please share the label of that item.
I
